- Tested on: HyuA
- assay.notes: Substrate specificity of HyuA: racemization of 5-substituted hydantoins by ORD polarimetry
- Type: biochemical, Arthrobacter aurescens DSM 3747
- test.parameters: substrate conc. 0.9 mM; 100% racemase activity corresponds to 313 μ/mg by standard assay
reported.property: Relative Activity (%)
State the answer as a number, implicitly in %.

Recorded Relative Activity, per entry:
O=C1NC(=O)[C@@H](Cc2ccccc2)N1	95
O=C1NC(=O)[C@H](Cc2c[nH]c3ccccc23)N1	13
O=C1NC(=O)[C@@H](Cc2c[nH]c3ccccc23)N1	12
CSCCC1NC(=O)NC1=O [D-MTEH]	8

Exercise: GET /values?readout=Relative Activity&item= CSCCC1NC(=O)NC1=O [L-MTEH]
Key: 7
